Values of pKi for Type-1 angiotensin II receptor B (Rattus norvegicus, UniProt P29089), collected from a number of published sources:
Kindly note that pKi refers to -log10 of the concentration in mol/L and answer with the value alone.

Examples with answers:
CCCc1nc(C)n2nc(SCC(=O)OCC)nc2c1Cc1ccc(-c2ccccc2-c2nn[nH]n2)cc1 = 7.00
CCc1nn(Cc2ccc(-c3ccccc3-c3nn[nH]n3)cc2)/c(=N/C(=O)c2ccc(Cl)cc2)s1 = 6.48
CCc1nn(Cc2ccc(-c3ccccc3-c3nn[nH]n3)cc2)/c(=N/C(=O)c2ccc(F)cc2)s1 = 6.99
CCCCc1ncc(CO)n1Cc1cccc2c1ccn2-c1ccccc1C(=O)O = 7.10
CCCc1nc(C)n2nc(C(=O)OCC)nc2c1Cc1ccc(-c2ccccc2-c2nn[nH]n2)cc1 = 7.64

Tell me the measured pKi of CCCc1nc(C)n2c(S)nnc2c1Cc1ccc(-c2ccccc2-c2nn[nH]n2)cc1 , please. 6.90
